As shown below, each of these compounds has a reported Plant response rating, Crabgrass, Large value.
System: large crabgrass
ASSAY_REMARKS: Test F preemergence test
Assay type: in vivo, Digitaria sanguinalis
ASSAY_SETUP: 16 g ai/ha, preemergence; scale 0 to 100
MEASUREMENT_LABEL: Plant response rating, Crabgrass, Large

| COMPOUND | MEASUREMENT_LABEL | REPORTED_VALUE |
| --- | --- | --- |
| Cn1nc(C(F)(F)C(F)(F)F)c(C[S+]([O-])c2cccc[n+]2[O-])c1OCC(F)(F)F (centres unmarked) | Plant response rating, Crabgrass, Large | 0 |
| Cn1nc(OC(F)F)c(CS(=O)(=O)c2cccc[n+]2[O-])c1C(F)(F)F | Plant response rating, Crabgrass, Large | 40 |
| CCn1nc(C(F)(F)F)c(CS(=O)(=O)c2cc(C)cc[n+]2[O-])c1OCC(F)(F)F | Plant response rating, Crabgrass, Large | 10 |
| CC(c1c(C(F)(F)F)nn(C)c1OCC(F)(F)F)S(=O)(=O)c1cccc[n+]1[O-] (racemic) | Plant response rating, Crabgrass, Large | 15 |
| CCn1nc(C(F)(F)F)c(C[S+]([O-])c2cc(C)cc[n+]2[O-])c1OCC(F)(F)F (racemic) | Plant response rating, Crabgrass, Large | 0 |
